- assay.notes: refractive index (Na D-line) (dimensionless)
- condition.summary: 293.15 K; 101.33 kPa; Liquid; Standard Abbe refractometry
parameter.measured: refractive index

compound	refractive index
CC(C)CO [2-methyl-1-propanol]	1.3955
CC(C)(C)O [2-methylpropan-2-ol]	1.3881
CCCCOC(C)=O [butyl ethanoate]	1.3951
O [water]	1.3328
CCO [ethanol]	1.3616

Data credit: the NIST ThermoML archive (doi:10.1016/j.fluid.2014.08.014)
